- TESTED_TARGET: Human IP6K1 (Homo sapiens, UniProt Q92551)
- Construct: GST (N, cleaved yes); made in house; host or cells: C43 E. coli, pGEX-6P-2
- Sequence (Q92551 whole entry): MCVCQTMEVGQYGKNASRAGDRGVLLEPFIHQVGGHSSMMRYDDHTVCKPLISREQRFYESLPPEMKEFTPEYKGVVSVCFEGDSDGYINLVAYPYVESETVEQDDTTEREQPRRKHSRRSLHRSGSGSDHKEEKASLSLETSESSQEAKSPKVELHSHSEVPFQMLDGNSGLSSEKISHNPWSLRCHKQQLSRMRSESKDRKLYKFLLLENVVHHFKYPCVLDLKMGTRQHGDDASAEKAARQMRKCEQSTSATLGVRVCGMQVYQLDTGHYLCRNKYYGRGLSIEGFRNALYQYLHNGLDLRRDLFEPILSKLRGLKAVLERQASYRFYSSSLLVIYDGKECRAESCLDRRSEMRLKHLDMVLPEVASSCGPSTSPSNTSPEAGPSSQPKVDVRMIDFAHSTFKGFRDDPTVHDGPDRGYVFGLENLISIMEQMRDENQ
- ASSAY_METHOD_TEXT: IP6K1 high-throughput screen of the Sigma LOPAC (ADP-Glo Max, single point);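 also: final compound concentration 10µM in 5% DMSO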
- Format: biochemical
- SETTINGS: Sigma LOPAC single-point screen, ADP-Glo Max raw signal per well
Counter-ions that a name gives are not always drawn.
Entries annotated with measured Raw Signal
Give your answer as a number; write no unit.

Notebook: Cc1ccc(S(=O)(=O)N[C@@H](Cc2ccccc2)C(=O)CCl)cc1 , Raw Signal read as 59222

Notebook: Cl.O=c1[nH]oc2c1CCNC2 [THIP hydrochloride] , Raw Signal read as 60339

Notebook: c1ccc2cc(-c3ncc[nH]3)ccc2c1 [Benazoline oxalate] , Raw Signal read as 61441
